assay: Inhibition of recombinant serine beta lactamase OXA-48 (unknown origin) expressed in Escherichia coli BL21 (DE3) cells using meropenem as substrate by spectrometric analysis; design: species or system Bacteria
Measured property: log10(IC50) (log10 of the value in nM)
Could you please treat all values as log10 of IC50 in nM?

O=C(CCc1ccccc1)NOC(=O)OCc1ccccc1: 3.49
CC(C)COC(=O)ONC(=O)CCC1CCCCC1: 3.31
O=C(CCCc1ccccc1)NOC(=O)OCc1ccccc1: 3.00

Lookup: Field request: log10(IC50) | item: CCOC(=O)ONC(=O)C(CC)c1ccccc1 (stereo unspecified)
Found: 4.51

Lookup: Would you mind telling me what log10(IC50) value was observed for CC(C)COC(=O)ONC(=O)CCCc1ccccc1 ?
Found: 3.01
